Data provenance: ChEMBL document CHEMBL5042498

I'd appreciate it if you could supply IC50 values for the items below.
- measurement.target: Cannabinoid receptor 1 (Homo sapiens, UniProt P21554)
- Sequence (P21554 whole entry): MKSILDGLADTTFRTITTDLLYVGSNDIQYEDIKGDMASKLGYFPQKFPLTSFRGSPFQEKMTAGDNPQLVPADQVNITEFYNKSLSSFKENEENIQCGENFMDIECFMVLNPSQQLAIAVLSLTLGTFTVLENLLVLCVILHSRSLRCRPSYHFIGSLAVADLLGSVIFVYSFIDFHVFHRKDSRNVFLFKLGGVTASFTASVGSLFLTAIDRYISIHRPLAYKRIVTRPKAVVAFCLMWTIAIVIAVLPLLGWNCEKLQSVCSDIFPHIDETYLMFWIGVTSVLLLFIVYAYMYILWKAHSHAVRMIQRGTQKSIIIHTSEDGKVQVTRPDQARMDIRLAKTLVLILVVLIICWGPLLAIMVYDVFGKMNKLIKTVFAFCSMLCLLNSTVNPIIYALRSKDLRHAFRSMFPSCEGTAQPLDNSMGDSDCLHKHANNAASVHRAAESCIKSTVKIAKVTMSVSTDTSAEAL
- run.description: Antagonist activity at N-terminal tagged human CB1 receptor transfected with HEK293 cells assessed as forskolin-stimulated cAMP level in presence of CP55940 by BRET assay
- Assay type: functional, cell-based
One number for each entry, in nM.

Sample records with IC50:
COc1cccc(CCNC(=O)Nc2ccc(Cl)cc2)c1 7760
O=C(NCCc1cc(Cl)cc(Cl)c1)Nc1ccc(Cl)cc1 4370
Cc1ccc(CCNC(=O)Nc2ccc(Cl)cc2)cc1 2040

Take each entry in turn and give its IC50.
1. COc1ccc(CCNC(=O)Nc2ccc(Cl)cc2)cc1
2. O=C(NCCc1ccccc1)Nc1ccc(Cl)cc1
3. O=C(NCCc1cccc(Br)c1)Nc1ccc(Cl)cc1
4. O=C(NCCc1ccc([N+](=O)[O-])cc1)Nc1ccc(Cl)cc1
5. O=C(NCCc1cccc(C(F)(F)F)c1)Nc1ccc(Cl)cc1
6. O=C(NCCc1cccc(Cl)c1)Nc1ccc(Cl)cc1
7. O=C(NCCc1ccc(F)cc1)Nc1ccc(Cl)cc1

1: 4170; 2: 3470; 3: 724; 4: 1780; 5: 676; 6: 1510; 7: 1700
